# TARGET_SYSTEM: M17 leucyl aminopeptidase (Plasmodium falciparum 3D7)
# TEST: Inhibition of P. falciparum M17 aminopeptidase – biochemical, QFRET, set 3, dose response (AID 602309)
# SETUP_CONDITIONS: purified rPfM17LAP, H-Leu-NHMec fluorogenic cleavage
MEASURED_METRIC: pIC50
Schema: pIC50 number; meaning minus log10 of the concentration expressed in molar units.

Look up and report pIC50, with M17 leucyl aminopeptidase (Plasmodium falciparum 3D7) as system, for CCCCOc1ccc(C(C)C(=O)NO)cc1 (stereo not given) 5.67

Look up and report pIC50, with M17 leucyl aminopeptidase (Plasmodium falciparum 3D7) as system, for O=C(NO)c1ccc2ccccc2c1 4.33

Look up and report pIC50, with M17 leucyl aminopeptidase (Plasmodium falciparum 3D7) as system, for CCCCOc1cccc(CC(=O)NO)c1 5.65

Look up and report pIC50, with M17 leucyl aminopeptidase (Plasmodium falciparum 3D7) as system, for CCCOc1ccc(CC(=O)NO)cc1 5.86

Look up and report pIC50, with M17 leucyl aminopeptidase (Plasmodium falciparum 3D7) as system, for CCC(C)Oc1ccc(CC(=O)NO)cc1 (stereo not given) 5.64
